Origin of measurements: the supplement of paper PMC10290057

tested on: HCT116; test: efficacy (fitted maximal change in viability relative to DMSO control); higher = less cytotoxic (negative = loss of viability); details: 48 h
RECORDED_ENDPOINT: efficacy (%)
Use % as the unit, but write only the number.

// query efficacy value for entry `Cc1c[nH]c(-c2cnc(NCCNc3ccc(C#N)cn3)nc2-c2ccc(Cl)cc2Cl)n1`
-72.6

// query efficacy value for entry `NCCCCCC(=O)O`
-11.3

// query efficacy value for entry `Cn1cc(-c2ccc3nnc(Sc4ccc5ncccc5c4)n3n2)cn1`
-6.72

// query efficacy value for entry `C[C@H]1COC/2=C1/C(=O)C(=O)C3=C4CCCC(C)(C)C4=CC=C23`
-30

// query efficacy value for entry `CN1C(=O)N[C@H](Cc2c[nH]c3c(Cl)cccc23)C1=O`
15

---

test system: HCT116; assay: efficacy (fitted maximal change in viability relative to DMSO control); higher = less cytotoxic (negative = loss of viability); details: 48 h;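 also: Luminescence-based viability readout, five doses per compound, normalized against on-plate DMSO and empty-well controls, followed by dose-response curve fitting for every drug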
Counter-ions that a name gives are not always drawn.
Threshold rule: efficacy greater than or equal to -80% is met; below that, not met.

Entry `c1ccc2c(Oc3nc(Nc4ccc(N5CCOCC5)cc4)c4ncn(C5CCCCC5)c4n3)cccc2c1` : is its efficacy no less than -80%?
met

Entry N=C(N)Nc1ccc(C(=O)Oc2ccc3cc(C(=N)N)ccc3c2)cc1 [Nafamostat mesilate] : is its efficacy no less than -80%?
met

Entry `Cc1cnc(Nc2ccc(F)cc2Cl)nc1-c1c[nH]c(C(=O)N[C@H](CO)c2cccc(Cl)c2)c1` : is its efficacy no less than -80%?
not met

Entry `Cc1cc(SCc2sc(-c3ccc(C(F)(F)F)c(F)c3)nc2C)ccc1OCC(=O)O` : is its efficacy no less than -80%?
met

Entry `COc1cc(Nc2ncc(F)c(Nc3ccc4c(n3)N(COP(=O)(O)O)C(=O)C(C)(C)O4)n2)cc(OC)c1OC` : is its efficacy no less than -80%?
met

Entry `COc1ccc(-c2oc3ncnc(N)c3c2-c2ccc(NC(=O)Nc3cc(C(F)(F)F)ccc3F)cc2)cc1` : is its efficacy no less than -80%?
met

Entry `C[C@@H]1CN[C@H]2[C@@H](C)[C@@]3(CC[C@H]4[C@@H]5CC[C@@H]6C[C@@H](CC[C@]6(C)[C@H]5C\C4=C(C)\C3)N[S+](C)([O-])=O)O[C@@H]2C1` : is its efficacy no less than -80%?
not met

Entry `CN(C[C@@H]1COCCO1)[S+]([O-])(=O)NC2=CC3=C(C=C2)\C=C/C4=C(C=C(C=N4)C5=C[N](C)N=C5)C3=O` : is its efficacy no less than -80%?
not met

Entry COc1ccc([C@@H]2Sc3ccccc3N(CCN(C)C)C(=O)[C@@H]2OC(C)=O)cc1 [Diltiazem hydrochloride] : is its efficacy no less than -80%?
met

Entry `CCc1cncnc1N1CCN(Cc2nc3cc(C(F)(F)F)ccc3[nH]2)CC1` : is its efficacy no less than -80%?
met

Entry `CC1(C)CNc2cc(NC(=O)c3cccnc3NCc3ccncc3)ccc21` : is its efficacy no less than -80%?
met

Entry C=CCNc1c(O)cc2c(O)c1C[C@@H](C)C[C@H](OC)[C@H](O)[C@@H](C)/C=C(/C)[C@H](OC(N)=O)[C@@H](OC)/C=C\C=C(\C)C(=O)N2 [Retaspimycin Hydrochloride] : is its efficacy no less than -80%?
met

Entry `CC[C@H](CO)Nc1nc(NCc2ccccc2)c2ncn(C(C)C)c2n1` : is its efficacy no less than -80%?
not met

Entry `NC(=O)c1ccc2nc(-c3ccc(C4(N)CCC4)cc3)c(-c3ccccc3)n2n1` : is its efficacy no less than -80%?
not met

Entry C[C@]12CCC3[C@@H](CC[C@H]4NC(=O)\C=C/[C@]34C)[C@@H]1CC[C@@H]2C(=O)NC5=CC(=CC=C5C(F)(F)F)C(F)(F)F (some centres not stated) [Dutasteride] : is its efficacy no less than -80%?
met

Entry c1ccc(Cn2c(-c3ccc(OCC(C4CCNCC4)n4c(-c5ccccc5)nc5ccccc54)cc3)nc3ccccc32)cc1 (configuration not stated) : is its efficacy no less than -80%?
not met
